Here the recorded GI50 is given for each entry.
tested on: NCI-H23; assay: NCI tumour cell line growth inhibition, 48 h
Calls of active or inactive are those of the source. Rule as the data show it: active = GI50 up to about 1.1 µM and inactive = higher.

Examples from the recorded data:
>>> print(df.to_string())
                                   compound  measured_quantity             observed
0  CC(=O)NNc1nc(C)c(C(=O)NNC(=O)C(=O)Nc2c(C)cccc2C(C)(C)C)s1               GI50  > 100 µM (inactive)
1       CN(/N=C(\C(=O)O)c1ccccc1)C1=NCCCCN1               GI50  > 100 µM (inactive)
2  CC(=O)N(CCc1ccccc1)C(C#N)c1ccccc1 (stereo not drawn)               GI50  > 100 µM (inactive)

QUERY: In one line, give reported GI50 of the entry `CN(CCc1ccccn1)/[N+]([O-])=N/O.CNCCc1ccccn1` .
RESULT: > 100 µM (inactive)

QUERY: Give me measured GI50, please, for this compound: `Cc1ccc(S(=O)(=O)NC(=O)NC23CC4CC(CC(F)(C4)C2)C3)cc1`
RESULT: > 100 µM (inactive)

QUERY: Report GI50, nothing else, for this compound: `CCOC(=O)c1ccc(Nc2nc3ccccc3n3cccc23)cc1`
RESULT: 63.8 µM (inactive)

QUERY: Please indicate GI50 recorded for `c1ccc(SCCCC(Sc2ccccc2)Sc2ccccc2)cc1`
RESULT: > 100 µM (inactive)

QUERY: Recall and state the measured GI50 for `COc1ccc(-c2onc(-c3c(C)cc(C)cc3C)c2C2=NCCN2)cc1` .
RESULT: > 100 µM (inactive)

----------
The molecules listed here are annotated with their GI50.
system: SNB-19; experiment: NCI tumour cell line growth inhibition, 48 h
Activity calls are given as the source filed them. No stated cut-off is given here; in the data, active = GI50 up to about 1.1 µM and inactive = higher.

Guide cases for GI50, answers given:
                                   molecule  measured_target            observed
0            C/C(=N\Nc1nc2ccccc2o1)c1ncccn1           SNB-19   0.163 µM (active)
1  CCC(C)(O)c1cnc(CC(C)C)c(=O)n1O (stereo not given)           SNB-19  55.8 µM (inactive)
2  Cc1cc(C)nc(NS(=O)(=O)c2ccc(NC(=O)c3cccc4c(NNc5ccc(S(=O)(=O)N=C(N)N)cc5)c5ccccc5nc34)cc2)n1           SNB-19  > 50 µM (inactive)
3  c1ccc(C2=NOC(c3ccccc3)N2C23CC4CC(CC(C4)C2)C3)cc1 (stereo not given)           SNB-19  > 10 µM (inactive)
4  O=C1/C(=C/c2ccc(Cl)cc2)CCC/C1=C\c1ccc(O)c(CN2CCCCC2)c1           SNB-19    33 µM (inactive)
5  O=[N+]([O-])c1ccc(S(=O)(=O)Cc2ccccc2)c2nonc12           SNB-19    37 µM (inactive)

Below: the item to evaluate.
QUERY: Return GI50 for the following molecule: CC(=O)NC(C)(C)C1CC=C(C)/C(=N\O)C1 (stereo not given)
RESULT: > 100 µM (inactive)

----------
system: HOP-92; assay: NCI tumour cell line growth inhibition, 48 h
Active and inactive are the calls of the source. Rule as the data show it: active = GI50 up to about 1.1 µM and inactive = higher.
// allowed return values: active, inactive

>>> print(df.to_string())
                                   compound  class_name
0  CCCCCCCCCCCCCCCCOCC(CN(C)CCN(C)C)OCCCCCCCCCCCCCCCC (stereo not drawn)    inactive
1  COc1ccc(CNC2=Nc3ccncc3S(=O)(=O)N2c2ccccc2)cc1    inactive
2  COC1(OC)C2C=CC1C([C@](C)(N)CO)C2 (stereo partly drawn)    inactive
3  CC(=O)OCC1OC(N2C(=O)/C(=C\c3ccc(Cl)cc3)C(N)=Nc3ccccc32)C(OC(C)=O)C(OC(C)=O)C1OC(C)=O (stereo not drawn)    inactive
4  Cc1cc(C)c2c(n1)S(=O)(=O)N(CCCN1CCN(c3cccc(C(F)(F)F)c3)CC1)c1c-2nn(C)c1C    inactive

--- query ---
QUERY: Record lookup: outcome of this test for `O=C1C[C@H]2CC3(CC[C@H]2CN1)OCCO3` ?
RESULT: inactive
